Tested on: Citrobacter freundii
test.method.notes: Antimicrobial activity against aac(6')-Ib-cr-positive Citrobacter freundii PU55 harboring GyrA T83I, ParC S80I mutant, wild-type GyrB, qnrA genes by agar dilution method
Type: functional

# compound.structure, MIC
data = [
    ("CO/N=C(\\C(=O)N[C@@H]1C(=O)N2C(C(=O)O)=C(COC(C)=O)CS[C@H]12)c1csc(N)n1", "128 µg/mL"),
    ("Cc1cc(NS(=O)(=O)c2ccc(N)cc2)no1", "> 256 µg/mL"),
    ("CC(C)(O/N=C(\\C(=O)N[C@@H]1C(=O)N2C(C(=O)[O-])=C(C[n+]3ccccc3)CS[C@H]12)c1csc(N)n1)C(=O)O", "64 µg/mL"),
    ("C[C@H]1COc2c(N3CCN(C)CC3)c(F)cc3c(=O)c(C(=O)O)cn1c23.C[C@H]1COc2c(N3CCN(C)CC3)c(F)cc3c(=O)c(C(=O)O)cn1c23.O", "32 µg/mL"),
    ("C[C@@H](O)[C@H]1C(=O)N2C(C(=O)O)=C(S[C@@H]3CN[C@H](C(=O)N(C)C)C3)[C@H](C)[C@H]12", "0.25 µg/mL"),
    ("CO/N=C(\\C(=O)N[C@@H]1C(=O)N2C(C(=O)[O-])=C(C[N+]3(C)CCCC3)CS[C@H]12)c1csc(N)n1", "1 µg/mL"),
    ("CO[C@@]1(NC(=O)Cc2cccs2)C(=O)N2C(C(=O)O)=C(COC(N)=O)CS[C@@H]21", "> 256 µg/mL"),
    ("O=C(O)c1cn(C2CC2)c2cc(N3CCNCC3)c(F)cc2c1=O", "> 32 µg/mL"),
    ("NCC[C@H](O)C(=O)N[C@@H]1C[C@H](N)[C@@H](O[C@H]2O[C@H](CN)[C@@H](O)[C@H](O)[C@H]2O)[C@H](O)[C@H]1O[C@H]1O[C@H](CO)[C@@H](O)[C@H](N)[C@H]1O", "4 µg/mL"),
]

====

Test system: Enterobacter cloacae
test.method.notes: Antimicrobial activity against aac(6')-Ib-cr-negative Enterobacter cloacae GZ51 harboring qnrA gene by agar dilution method
Type: functional
readout.kind: MIC

# compound.structure, readout.kind, reported.result
data = [
    ("C[C@H]1COc2c(N3CCN(C)CC3)c(F)cc3c(=O)c(C(=O)O)cn1c23.C[C@H]1COc2c(N3CCN(C)CC3)c(F)cc3c(=O)c(C(=O)O)cn1c23.O", "MIC", "0.5 µg/mL"),
    ("NCC[C@H](O)C(=O)N[C@@H]1C[C@H](N)[C@@H](O[C@H]2O[C@H](CN)[C@@H](O)[C@H](O)[C@H]2O)[C@H](O)[C@H]1O[C@H]1O[C@H](CO)[C@@H](O)[C@H](N)[C@H]1O", "MIC", "> 256 µg/mL"),
    ("Cc1cc(NS(=O)(=O)c2ccc(N)cc2)no1", "MIC", "> 256 µg/mL"),
    ("C[C@@H](O)[C@H]1C(=O)N2C(C(=O)O)=C(S[C@@H]3CN[C@H](C(=O)N(C)C)C3)[C@H](C)[C@H]12", "MIC", "0.064 µg/mL"),
    ("CC(C)(O/N=C(\\C(=O)N[C@@H]1C(=O)N2C(C(=O)[O-])=C(C[n+]3ccccc3)CS[C@H]12)c1csc(N)n1)C(=O)O", "MIC", "64 µg/mL"),
    ("CO[C@@]1(NC(=O)Cc2cccs2)C(=O)N2C(C(=O)O)=C(COC(N)=O)CS[C@@H]21", "MIC", "> 256 µg/mL"),
    ("CO/N=C(\\C(=O)N[C@@H]1C(=O)N2C(C(=O)O)=C(COC(C)=O)CS[C@H]12)c1csc(N)n1", "MIC", "64 µg/mL"),
]
